Listing of recorded EC50 by entry.
tested on: Streptococcus sp. 'group A'; experiment: Streptococcus pyogenes SK(-)GAS viability under kanamycin – luminescence, BacTiterGlo, confirmation, counter-screen for streptokinase expression inhibitor project, dose response (AID 1900); assay type: functional, organism-based
Activity calls are given as the source filed them. No stated cut-off is given here; in the data, actives have a measured EC50 and inactives only a lower limit.

molecule: Cc1nc2c(C(=O)NCc3ccc4c(c3)OCO4)cnn2c(C)c1Cc1ccc(F)cc1Cl
testTarget: Streptococcus sp. 'group A'
EC50: 9.62 µM (active)
--
molecule: Cc1cccc(CN2CCCC(C(=O)c3ccc4c5c(cccc35)CC4)C2)n1 (stereo unspecified)
testTarget: Streptococcus sp. 'group A'
EC50: 15 µM (active)
--
molecule: FC(F)(F)c1cccc(CNC2c3ccccc3-c3ccccc32)c1
testTarget: Streptococcus sp. 'group A'
EC50: 22.8 µM (active)
--
molecule: Cc1cccc(C)c1NC(=O)CN(C)CC(=O)Nc1sc2c(c1C(N)=O)CCC2
testTarget: Streptococcus sp. 'group A'
EC50: > 150 µM (not active)
--
molecule: CC12CC3(C)CC(C)(C1)CC(C(=O)NC1=NCCS1)(C2)C3
testTarget: Streptococcus sp. 'group A'
EC50: 3.33 µM (active)
--
molecule: Cc1ccc2nc(-c3ccc(N)cc3)sc2c1
testTarget: Streptococcus sp. 'group A'
EC50: > 150 µM (not active)
